system: HLA-A*24; test: MHC binding assay, UV-ligand exchange with beta2m ELISA, HLA-A*24; parameters: species or system human; details: binding to HLA-A*24 ranged by peptide exchange yield (UV-ligand exchange, beta2m ELISA)
ENDPOINT: Peptide exchange

{"SUBSTANCE": "282 (NYLVDPVTI; listed as Homo sapiens) [compound 282]", "MEASURED_ON": "HLA-A*24", "ENDPOINT": "Peptide exchange", "TEST_VALUE": "+++ (50%-75% = +++)"}
{"SUBSTANCE": "208 (TYLEKIDGF; listed as Homo sapiens) [compound 208]", "MEASURED_ON": "HLA-A*24", "ENDPOINT": "Peptide exchange", "TEST_VALUE": "++++ (>=75% = ++++)"}
{"SUBSTANCE": "210 (IYAGVGEFSF; listed as Homo sapiens) [compound 210]", "MEASURED_ON": "HLA-A*24", "ENDPOINT": "Peptide exchange", "TEST_VALUE": "++++ (>=75% = ++++)"}
{"SUBSTANCE": "277 (FYTFPFQQL; listed as Homo sapiens) [compound 277]", "MEASURED_ON": "HLA-A*24", "ENDPOINT": "Peptide exchange", "TEST_VALUE": "+++ (50%-75% = +++)"}
{"SUBSTANCE": "190 (LYSELTETL; listed as Homo sapiens) [compound 190]", "MEASURED_ON": "HLA-A*24", "ENDPOINT": "Peptide exchange", "TEST_VALUE": "+++ (50%-75% = +++)"}
{"SUBSTANCE": "261 (GYIKLINFI; listed as Homo sapiens) [compound 261]", "MEASURED_ON": "HLA-A*24", "ENDPOINT": "Peptide exchange", "TEST_VALUE": "++++ (>=75% = ++++)"}

Exercise: Complete the entry with Peptide exchange for 204 (EYLSTCSKL; listed as Homo sapiens) [compound 204]
Key: +++ (50%-75% = +++)

Exercise: Give reported Peptide exchange value for 382 (AYLPPLQQVF; listed as Homo sapiens) [compound 382]
Key: +++ (50%-75% = +++)

Exercise: For the substance 227 (IYRFITERF; listed as Homo sapiens) [compound 227] , give its reported Peptide exchange.
Key: +++ (50%-75% = +++)

Exercise: Fill in reported Peptide exchange for this entry: 121 (RYGLPAAWSTF; listed as Homo sapiens) [compound 121]
Key: +++ (50%-75% = +++)

Exercise: Kindly indicate its recorded Peptide exchange. Item: 159 (IYEETRGVL; listed as Homo sapiens) [compound 159]
Key: +++ (50%-75% = +++)

Exercise: Provide only the value of recorded Peptide exchange for 242 (VYGEPRELL; listed as Homo sapiens) [compound 242]
Key: +++ (50%-75% = +++)

Exercise: Please look at this substance and report its Peptide exchange: 253 (IYGFFNENF; listed as Homo sapiens) [compound 253]
Key: +++ (50%-75% = +++)

Exercise: State, in one line, measured Peptide exchange of 296 (SYQVIFQHF; listed as Homo sapiens) [compound 296]
Key: ++++ (>=75% = ++++)
